- Tested on: A2780 (ovarian carcinoma)
- procedureDetails: SRB cytotoxicity assay, A2780
- Type: cell-based, human
- studyConditions: CCD18Co/A2780
Tick Condition met if selectivity index 1 (SI 1) is 10 or greater. Tick Condition not met if selectivity index 1 (SI 1) is less than 10.

Reference set, count: 4
C(=C\c1c[nH]c2ccccc12)/c1ccccn1 [Compound 3, 3-[(E)-2-Pyridin-2-yl-ethenyl]-1H-indole]; Condition met
C=C1C[C@@]23CC[C@H]4[C@@](C)(CCC[C@@]4(C)C(=O)OCC[n+]4ccc(/C=C/c5c[nH]c6ccccc56)cc4)[C@@H]2CC[C@]1(O)C3.[Br-] [Compound 8]; Condition not met
C[C@@]12CC[C@@H]3[C@@](CC[C@H]4[C@@]3(C)CCC[C@@]4(C)C(=O)OCCBr)(CC1=O)C2 [Compound 7]; Condition not met
C=C1C[C@@]23CC[C@H]4[C@@](C)(CCC[C@@]4(C)C(=O)OCCC[n+]4ccccc4/C=C/c4c[nH]c5ccccc45)[C@@H]2CC[C@]1(O)C3.[Br-] [Compound 20]; Condition met

Q) // inclusive: selectivity index 1 (SI 1) at least 10? input: C(=C\c1c[nH]c2ccccc12)/c1cccnc1 [Compound 4, 3-[(E)-2-Pyridin-3-yl-ethenyl]-1H-indole]
A) Condition met

Q) # check: selectivity index 1 (SI 1) of C=C1C[C@@]23CC[C@H]4[C@@](C)(CCC[C@@]4(C)C(=O)OCCC[n+]4ccc(/C=C/c5c[nH]c6ccccc56)cc4)[C@@H]2CC[C@]1(O)C3.[Br-] [Compound 16] is greater than or equal to 10
A) Condition met

====

- Test system: A2780 (ovarian carcinoma)
- procedureDetails: SRB cytotoxicity assay, A2780
- Format: cell-based, human
- studyConditions: SRB assay, 72 h treatment, mean n = 3, SD 5-10%
pIC50: −log10 of the molar value.
Class yes (1): pIC50 at least 6. Class no (0): pIC50 below 6.

C=C1C[C@@]23CC[C@H]4[C@@](C)(CCC[C@@]4(C)C(=O)OCC[n+]4cccc(/C=C/c5c[nH]c6ccccc56)c4)[C@@H]2CC[C@]1(O)C3 [Compound 10]; no (0)
C=C1C[C@@]23CC[C@H]4[C@@](C)(CCC[C@@]4(C)C(=O)OCCCC[n+]4ccc(/C=C/c5c[nH]c6ccccc56)cc4)[C@@H]2CC[C@]1(O)C3.[Br-] [Compound 24]; yes (1)

Please examine the following record next.
Q) pIC50 >= 6 for CC12CCC3C(CCC4C(C)(C(=O)OCCCBr)CCCC34C)(CC1=O)C2 (stereo not drawn) [Compound 15] ?
A) no (0)

====

- System: CCD18Co (non-malignant human fibroblasts)
- procedureDetails: SRB cytotoxicity assay, CCD18Co
- Assay type: cell-based
- studyConditions: 72 h treatment, mean n = 3, SD 5-10%
recordedEndpoint: IC50 (µM)
Enter your answer as a number in µM; do not include the unit.

Example cases with answers are listed next.
CC12CCC3C(CCC4C(C)(C(=O)OCCCC[n+]5ccccc5C=Cc5c[nH]c6ccccc56)CCCC34C)(CC1=O)C2.[Br-] (stereo not drawn); 18.6
C=C1C[C@@]23CC[C@H]4[C@@](C)(CCC[C@@]4(C)C(=O)OCC[n+]4ccc(/C=C/c5c[nH]c6ccccc56)cc4)[C@@H]2CC[C@]1(O)C3.[Br-]; 11.8

Would you kindly look at the next entry?
Q) Read off the recorded IC50 for CC12CCC3C(CCC4C(C)(C(=O)OCCCCBr)CCCC34C)(CC1=O)C2 (stereo not drawn)
A) 31.3

====

- Tested on: A2780cis (resistant derivative of A2780)
- procedureDetails: SRB cytotoxicity assay, A2780cis
- Type: cell-based, human
- studyConditions: SRB assay, 72 h treatment, mean n = 3, SD 5-10%
recordedEndpoint: pIC50
Bear in mind: pIC50 is minus log10 of a mol/L concentration; give just that figure.

Q) Hello, please tell me recorded pIC50 for this one: CC12CCC3C(CCC4C(C)(C(=O)OCCCC[n+]5ccccc5C=Cc5c[nH]c6ccccc56)CCCC34C)(CC1=O)C2.[Br-] (stereo not shown) [Compound 29]
A) 5.49

Q) Look up and report measured pIC50 for this entry: C=C1C[C@@]23CC[C@H]4[C@@](C)(CCC[C@@]4(C)C(=O)OCC[n+]4ccccc4/C=C/c4c[nH]c5ccccc45)[C@@H]2CC[C@]1(O)C3.[Br-] [Compound 12]
A) 4.53

Q) Answer with the recorded pIC50 for the molecule listed here: CC12CCC3C(CCC4C(C)(C(=O)OCCCC[n+]5ccc(C=Cc6c[nH]c7ccccc67)cc5)CCCC34C)(CC1=O)C2.[Br-] (stereo not shown) [Compound 25]
A) 6.51

Q) // Input: C=C1C[C@@]23CC[C@H]4[C@@](C)(CCC[C@@]4(C)C(=O)OCC[n+]4cccc(/C=C/c5c[nH]c6ccccc56)c4)[C@@H]2CC[C@]1(O)C3 [Compound 10] . Output its pIC50 only.
A) 5.38

Q) State its pIC50 for this molecule: CC12CCC3C(CCC4C(C)(C(=O)OCCCBr)CCCC34C)(CC1=O)C2 (stereo not shown) [Compound 15]
A) 4.78

====

- Test system: HT29 (colorectal carcinoma)
- procedureDetails: SRB cytotoxicity assay, HT29
- Format: cell-based, human
- studyConditions: 72 h treatment, mean n = 3, SD 5-10%
Classify: class 1 when IC50 is strictly less than 6 µM; class 0 when IC50 is not.

Would you please look over these solved cases?
C=C1C[C@@]23CC[C@H]4[C@@](C)(CCC[C@@]4(C)C(=O)OCC[n+]4ccccc4/C=C/c4c[nH]c5ccccc45)[C@@H]2CC[C@]1(O)C3.[Br-]; class 0
C=C1C[C@@]23CC[C@H]4[C@@](C)(CCC[C@@]4(C)C(=O)OCCCC[n+]4ccc(/C=C/c5c[nH]c6ccccc56)cc4)[C@@H]2CC[C@]1(O)C3.[Br-]; class 1
CC12CCC3C(CCC4C(C)(C(=O)OCC[n+]5ccccc5C=Cc5c[nH]c6ccccc56)CCCC34C)(CC1=O)C2.[Br-] (stereo not drawn); class 0
CC12CCC3C(CCC4C(C)(C(=O)OCCCCBr)CCCC34C)(CC1=O)C2 (stereo not drawn); class 0
C=C1C[C@@]23CC[C@H]4[C@@](C)(CCC[C@@]4(C)C(=O)OCCCC[n+]4cccc(/C=C/c5c[nH]c6ccccc56)c4)[C@@H]2CC[C@]1(O)C3.[Br-]; class 1

Q) Threshold test, IC50 < 6 µM: CC12CCC3C(CCC4C(C)(C(=O)OCCC[n+]5ccc(C=Cc6c[nH]c7ccccc67)cc5)CCCC34C)(CC1=O)C2.[Br-] (stereo not drawn)
A) class 1

Q) # strict comparison: is reported IC50 < 6 µM? input = CC12CCC3C(CCC4C(C)(C(=O)OCCCBr)CCCC34C)(CC1=O)C2 (stereo not drawn)
A) class 0

Q) For `C=C1C[C@@]23CC[C@H]4[C@@](C)(CCC[C@@]4(C)C(=O)OCCC[n+]4ccc(/C=C/c5c[nH]c6ccccc56)cc4)[C@@H]2CC[C@]1(O)C3.[Br-]` , is the recorded IC50 below the cut-off of 6 µM?
A) class 1

Q) Quick check: does CC12CCC3C(CCC4C(C)(C(=O)OCCCC[n+]5ccccc5C=Cc5c[nH]c6ccccc56)CCCC34C)(CC1=O)C2.[Br-] (stereo not drawn) have IC50 under 6 µM?
A) class 1

====

- Tested on: A2780 (ovarian carcinoma)
- procedureDetails: SRB cytotoxicity assay, A2780
- Type: cell-based, human
- studyConditions: SRB assay, 72 h treatment, mean n = 3, SD 5-10%
recordedEndpoint: pIC50
Note on units: pIC50 is unitless, being -log10 of a concentration expressed in mol/L.

CC12CCC3C(CCC4C(C)(C(=O)OCCC[n+]5cccc(C=Cc6c[nH]c7ccccc67)c5)CCCC34C)(CC1=O)C2.[Br-] (stereo not drawn); 6.00

Q) Determine its reported pIC50: CC12CCC3C(CCC4C(C)(C(=O)OCC[n+]5ccc(C=Cc6c[nH]c7ccccc67)cc5)CCCC34C)(CC1=O)C2.[Br-] (stereo not drawn)
A) 6.03

Q) Look up and state reported pIC50 for CC12CCC3C(CCC4C(C)(C(=O)OCCCC[n+]5cccc(C=Cc6c[nH]c7ccccc67)c5)CCCC34C)(CC1=O)C2.[Br-] (stereo not drawn)
A) 6.12

====

- Tested on: A2780cis (resistant derivative of A2780)
- procedureDetails: SRB cytotoxicity assay, A2780cis
- Assay type: cell-based, human
- studyConditions: SRB assay, 72 h treatment, mean n = 3, SD 5-10%
recordedEndpoint: pIC50
pIC50 here: minus log base 10 of the concentration, concentration in moles per litre.

C=C1C[C@@]23CC[C@H]4[C@@](C)(CCC[C@@]4(C)C(=O)OCC[n+]4ccc(/C=C/c5c[nH]c6ccccc56)cc4)[C@@H]2CC[C@]1(O)C3.[Br-]; 5.73
C=C1C[C@@]23CC[C@H]4[C@@](C)(CCC[C@@]4(C)C(=O)OCCCC[n+]4cccc(/C=C/c5c[nH]c6ccccc56)c4)[C@@H]2CC[C@]1(O)C3.[Br-]; 5.74
C=C1C[C@@]23CC[C@H]4[C@@](C)(CCC[C@@]4(C)C(=O)OCCCC[n+]4ccccc4/C=C/c4c[nH]c5ccccc45)[C@@H]2CC[C@]1(O)C3.[Br-]; 5.77
C=C1C[C@@]23CC[C@H]4[C@@](C)(CCC[C@@]4(C)C(=O)OCCC[n+]4ccc(/C=C/c5c[nH]c6ccccc56)cc4)[C@@H]2CC[C@]1(O)C3.[Br-]; 6.35

Q) // Input: `C=C1C[C@@]23CC[C@H]4[C@@](C)(CCC[C@@]4(C)C(=O)OCCC[n+]4ccccc4/C=C/c4c[nH]c5ccccc45)[C@@H]2CC[C@]1(O)C3.[Br-]` . Output its pIC50 only.
A) 5.57

Q) Please indicate pIC50 recorded for `C=C1C[C@@]23CC[C@H]4[C@@](C)(CCC[C@@]4(C)C(=O)OCCCBr)[C@@H]2CC[C@]1(O)C3`
A) 4.55

Q) Give the measured pIC50 for CC12CCC3C(CCC4C(C)(C(=O)OCCC[n+]5ccc(C=Cc6c[nH]c7ccccc67)cc5)CCCC34C)(CC1=O)C2.[Br-] (centres unmarked)
A) 6.52

Q) Please look at this compound and report its pIC50: `C=C1C[C@@]23CC[C@H]4[C@@](C)(CCC[C@@]4(C)C(=O)OCCC[n+]4cccc(/C=C/c5c[nH]c6ccccc56)c4)[C@@H]2CC[C@]1(O)C3.[Br-]`
A) 5.57

Q) Consider the compound CC12CCC3C(CCC4C(C)(C(=O)OCC[n+]5ccccc5C=Cc5c[nH]c6ccccc56)CCCC34C)(CC1=O)C2.[Br-] (centres unmarked) and give its recorded pIC50.
A) 5.39

Q) Kindly indicate its recorded pIC50. Item: CC12CCC3C(CCC4C(C)(C(=O)OCCC[n+]5cccc(C=Cc6c[nH]c7ccccc67)c5)CCCC34C)(CC1=O)C2.[Br-] (centres unmarked)
A) 5.71

Q) Determine from records and report pIC50 for CC12CCC3C(CCC4C(C)(C(=O)OCCCC[n+]5cccc(C=Cc6c[nH]c7ccccc67)c5)CCCC34C)(CC1=O)C2.[Br-] (centres unmarked)
A) 5.90

Q) Quick one: give measured pIC50 for `C=C1C[C@@]23CC[C@H]4[C@@](C)(CCC[C@@]4(C)C(=O)OCCCC[n+]4ccc(/C=C/c5c[nH]c6ccccc56)cc4)[C@@H]2CC[C@]1(O)C3.[Br-]`
A) 6.55

Q) Please report the measured pIC50 for CC12CCC3C(CCC4C(C)(C(=O)OCCCCBr)CCCC34C)(CC1=O)C2 (centres unmarked)
A) 4.54

Q) Fill in pIC50 for record `C[C@@]12CC[C@@H]3[C@@](CC[C@H]4[C@@]3(C)CCC[C@@]4(C)C(=O)OCCBr)(CC1=O)C2`
A) 4.54

Data origin, for the record: paper PMC10821019
